Each recorded value in this set is attributed to patent US20210238260.

- tgt: plasma purified human antithrombin III (AT-III), as complex with unfractionated heparin
- assay.comment: ratio of K0.5 (lower limit) to Catalyst Biosciences WT FIXa, AT-III/UFH inhibition
Listed here: items and their measured K0.5-mut/K0.5-wt.

- protein: "FIXa-K228N/R318Y/R338E/R403E/E410N (protein) chain 1: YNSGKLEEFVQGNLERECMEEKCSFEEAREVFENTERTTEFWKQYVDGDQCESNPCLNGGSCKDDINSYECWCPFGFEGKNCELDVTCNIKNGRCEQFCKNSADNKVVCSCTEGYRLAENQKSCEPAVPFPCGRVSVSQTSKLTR chain 2: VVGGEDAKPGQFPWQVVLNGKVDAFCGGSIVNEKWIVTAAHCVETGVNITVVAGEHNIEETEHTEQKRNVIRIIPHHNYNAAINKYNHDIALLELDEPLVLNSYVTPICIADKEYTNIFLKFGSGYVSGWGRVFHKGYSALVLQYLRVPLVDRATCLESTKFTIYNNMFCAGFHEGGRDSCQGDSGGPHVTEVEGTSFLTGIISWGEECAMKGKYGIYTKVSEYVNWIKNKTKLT"
  K0.5-mut/K0.5-wt: 517
- protein: "FIXa-R318Y/R338E/R403E/T412A (protein) chain 1: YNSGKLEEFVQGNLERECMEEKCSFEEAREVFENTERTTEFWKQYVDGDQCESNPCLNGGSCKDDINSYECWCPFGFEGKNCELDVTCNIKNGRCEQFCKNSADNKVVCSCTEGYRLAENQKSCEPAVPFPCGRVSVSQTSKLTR chain 2: VVGGEDAKPGQFPWQVVLNGKVDAFCGGSIVNEKWIVTAAHCVETGVKITVVAGEHNIEETEHTEQKRNVIRIIPHHNYNAAINKYNHDIALLELDEPLVLNSYVTPICIADKEYTNIFLKFGSGYVSGWGRVFHKGYSALVLQYLRVPLVDRATCLESTKFTIYNNMFCAGFHEGGRDSCQGDSGGPHVTEVEGTSFLTGIISWGEECAMKGKYGIYTKVSEYVNWIKEKAKLT"
  K0.5-mut/K0.5-wt: 517
